Recorded values, source patent US6806230B1.

In this section, each of the molecules is paired with its reported Or (effect on crop plant rice, index).
# System: rice (Or)
# RUN DESCRIPTION: Test Example 4: selectivity for a crop plant by flooded paddy field treatment
# Assay type: in vivo
# Set-up: scale not given here
# SETUP CONDITIONS: rice transplanted at second leaf stage, dose 25 g active ingredient per 10 ares, examined on the 21st day after treatment
Respond using a number only.

// solved cases for Or (effect on crop plant rice, index) follow
MOLECULE | Or (effect on crop plant rice, index)
Cc1ccccc1CC(=O)N(C)C(c1cncnc1C(F)(F)F)C(C)C (racemic) [Compound 1-50] | 1
Cc1ccc(CC(=O)N(C)C(c2cncnc2C(F)(F)Cl)C2CC2)cc1 (racemic) [Compound 1-93] | 0
CC(C)C(c1cncnc1C(F)(F)F)N(C)C(=O)Cc1ccc(Cl)cc1F (racemic) [Compound 1-46] | 0
CC(C)C(c1cncnc1C(F)(F)F)N(C)C(=O)Cc1cccc(C(F)(F)F)c1 (racemic) [Compound 1-39] | 0
CCCN(C(=O)Cc1ccc(C)cc1)C(c1cncnc1C(F)(F)F)C(C)C (racemic) [Compound 1-62] | 1

What the record says about CC(C)C(c1cncnc1C(F)(F)F)N(C)C(=O)Cc1ccc(I)cc1 (racemic) [Compound 1-42] : Or (effect on crop plant rice, index) is 0

What the record says about CN(C(=O)Cc1ccc(F)cc1)C(c1cncnc1C(F)(F)F)C(C)(C)C (racemic) [Compound 1-53] : Or (effect on crop plant rice, index) is 1

What the record says about CCC(C)C(c1cncnc1C(F)(F)F)N(C)C(=O)Cc1ccc(Cl)cc1 (mixture of isomers) [Compound 1-59] : Or (effect on crop plant rice, index) is 0
